- System: Rac1
- assay.summary: modulation of active Cdc42 and Rac1 in cells, profiling panel, Ras-related GTPase inhibitor project, cell lysate, ELISA, panel (AID 2375)
- condition.notes: NIH 3T3 cells, EGF-stimulated, PAK G-LISA active GTPase, active GTPase, at 1 µM, stronger effect = lower value
Results filed as inconclusive are left out.
reported.property: normalized active GTPase

The cases that follow already have their normalized active GTPase on record.
>>> recorded_value("COc1ccc(C2CC(c3ccccc3)=NN2c2ccc(S(N)(=O)=O)cc2)cc1 (stereo not given)")
0.724
>>> recorded_value("Cc1ccc(C2CC(c3ccccc3)=NN2c2ccc(S(N)(=O)=O)cc2)cc1 (stereo not given)")
0.782
>>> recorded_value("NS(=O)(=O)c1ccc(N2N=C(c3ccccc3)CC2c2ccc(Br)cc2)cc1 (stereo not given)")
0.5

[a] NS(=O)(=O)c1ccc(N2N=C(c3ccccc3)CC2c2cccc(Br)c2)cc1 (stereo not given)
[b] Cc1cccc(C2CC(c3ccccc3)=NN2c2ccc(S(N)(=O)=O)cc2)c1 (stereo not given)
When their normalized active GTPase values are compared, which is larger, a or b ? # answer = label of selected item
b
